The listing below reports IC50 for compounds tested on full-length MALT1 protein His-MALT1(1-824) (Homo sapiens).
Sequence (Q9UDY8 whole entry): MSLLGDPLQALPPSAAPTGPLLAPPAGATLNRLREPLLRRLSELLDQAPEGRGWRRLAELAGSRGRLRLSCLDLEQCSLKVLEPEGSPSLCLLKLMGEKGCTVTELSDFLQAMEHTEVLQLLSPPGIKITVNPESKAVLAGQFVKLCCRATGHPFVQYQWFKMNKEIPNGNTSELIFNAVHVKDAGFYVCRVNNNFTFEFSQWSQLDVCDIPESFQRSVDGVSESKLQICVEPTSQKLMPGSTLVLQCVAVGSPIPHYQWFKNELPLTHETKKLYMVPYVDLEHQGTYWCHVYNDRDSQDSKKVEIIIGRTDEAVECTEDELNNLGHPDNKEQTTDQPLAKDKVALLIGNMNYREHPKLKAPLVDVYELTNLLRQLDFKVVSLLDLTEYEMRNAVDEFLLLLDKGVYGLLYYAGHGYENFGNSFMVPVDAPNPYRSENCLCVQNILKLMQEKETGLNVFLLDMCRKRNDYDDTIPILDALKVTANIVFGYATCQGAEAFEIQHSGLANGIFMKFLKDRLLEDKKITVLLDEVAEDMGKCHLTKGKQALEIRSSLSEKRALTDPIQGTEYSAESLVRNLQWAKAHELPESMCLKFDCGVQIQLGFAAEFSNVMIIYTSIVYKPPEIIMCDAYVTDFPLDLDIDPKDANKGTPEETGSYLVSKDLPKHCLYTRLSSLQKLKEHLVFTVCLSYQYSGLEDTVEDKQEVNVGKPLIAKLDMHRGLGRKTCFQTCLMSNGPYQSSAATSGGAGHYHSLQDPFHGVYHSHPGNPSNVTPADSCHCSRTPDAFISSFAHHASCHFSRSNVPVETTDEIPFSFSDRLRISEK

[[record]]
compound = "Cn1cc([C@]2(C)C[C@@H](C(=O)Nc3cnc(-n4nccn4)c(Cl)c3)c3cnc4cc(F)nn4c32)cn1 (single isomer, unassigned)"
target = "full-length MALT1 protein His-MALT1(1-824) (Homo sapiens)"
readout_kind = "IC50"
data_value = "≥ 1000 nM"

[[record]]
compound = "C[C@@]1(c2ccn(C(F)F)n2)C[C@@H](C(=O)Nc2cnc(-n3nccn3)c(C(F)(F)F)c2)c2cnc3cc(F)nn3c21 (single isomer, unassigned)"
target = "full-length MALT1 protein His-MALT1(1-824) (Homo sapiens)"
readout_kind = "IC50"
data_value = "≥ 1000 nM"

[[record]]
compound = "Cn1cc([C@]2(C)C[C@@H](C(=O)Nc3cnc(-n4nccn4)c(Cl)c3)c3cnc4cc(Cl)nn4c32)cn1 (single isomer, unassigned)"
target = "full-length MALT1 protein His-MALT1(1-824) (Homo sapiens)"
readout_kind = "IC50"
data_value = "≥ 1000 nM"

[[record]]
compound = "Cn1cc([C@]2(C)C[C@H](C(=O)Nc3cnc(-n4nccn4)c(Cl)c3)c3cnc4cc(F)nn4c32)cn1 (racemic)"
target = "full-length MALT1 protein His-MALT1(1-824) (Homo sapiens)"
readout_kind = "IC50"
data_value = "100 to 1000 nM"

[[record]]
compound = "CC1(c2cnn(C(F)F)c2)CC(C(=O)Nc2cnc(-c3ncc(F)cn3)c(C(F)(F)F)c2)c2cnc3cc(F)nn3c21 (single isomer, unassigned)"
target = "full-length MALT1 protein His-MALT1(1-824) (Homo sapiens)"
readout_kind = "IC50"
data_value = "100 to 1000 nM"


--- query ---
I have this compound here, Cn1cc([C@]2(C)C[C@H](C(=O)Nc3cnc(OC(F)(F)F)c(C#N)c3)c3cnc4cc(F)nn4c32)cn1 (single isomer, unassigned) , and I need its recorded IC50. 100 to 1000 nM
